target: T1, naked peptide FNFTDFYCEK (human); assay: ELISA naked peptide; scFv 1 ug/mL; repII
T1 peptide: FNFTDFYCEK
// reported OD450 per item

{"binder": "Comparative antibody 3 (Comp-3) scFv, SR_92R (Somovilla-Crespo et al. 2018), His-tagged (scFv) scFv: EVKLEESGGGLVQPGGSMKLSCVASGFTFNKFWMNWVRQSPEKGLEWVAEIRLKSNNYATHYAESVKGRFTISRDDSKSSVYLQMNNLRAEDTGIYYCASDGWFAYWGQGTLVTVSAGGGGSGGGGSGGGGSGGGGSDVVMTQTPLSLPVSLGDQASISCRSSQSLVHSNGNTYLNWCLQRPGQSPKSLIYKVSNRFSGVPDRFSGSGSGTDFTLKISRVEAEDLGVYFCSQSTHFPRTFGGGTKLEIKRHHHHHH", "OD450": "0.07 OD"}
{"binder": "Comparative antibody 1 (Comp-1) scFv, SEQ ID NO: 10 from WO2023/037125 A1, His-tagged (scFv) scFv: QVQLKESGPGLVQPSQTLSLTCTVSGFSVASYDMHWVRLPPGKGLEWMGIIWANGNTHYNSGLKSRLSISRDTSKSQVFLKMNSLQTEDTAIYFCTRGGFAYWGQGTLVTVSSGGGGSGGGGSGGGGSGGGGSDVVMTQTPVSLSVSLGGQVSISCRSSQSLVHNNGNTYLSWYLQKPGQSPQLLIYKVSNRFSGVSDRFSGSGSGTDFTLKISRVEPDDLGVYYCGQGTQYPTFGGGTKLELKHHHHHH", "OD450": "0.02 OD"}
{"binder": "CCR9_HUM2 scFv (humanized anti-CCR9 scFv, SEQ ID NO: 17 with C-terminal 6xHis tag) (scFv) scFv: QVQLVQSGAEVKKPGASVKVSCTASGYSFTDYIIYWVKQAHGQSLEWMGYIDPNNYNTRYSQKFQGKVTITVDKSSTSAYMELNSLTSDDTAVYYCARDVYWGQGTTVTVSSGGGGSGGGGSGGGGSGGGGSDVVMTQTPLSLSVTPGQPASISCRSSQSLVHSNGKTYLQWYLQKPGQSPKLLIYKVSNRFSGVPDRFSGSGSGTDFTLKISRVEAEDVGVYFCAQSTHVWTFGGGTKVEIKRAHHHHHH", "OD450": "0.03 OD"}
{"binder": "Comparative antibody 2 (Comp-2) scFv, 243LO326 (VH SEQ ID NO: 51 and VL SEQ ID NO: 52 of WO 2022/195028 A2), His-tagged (scFv) scFv: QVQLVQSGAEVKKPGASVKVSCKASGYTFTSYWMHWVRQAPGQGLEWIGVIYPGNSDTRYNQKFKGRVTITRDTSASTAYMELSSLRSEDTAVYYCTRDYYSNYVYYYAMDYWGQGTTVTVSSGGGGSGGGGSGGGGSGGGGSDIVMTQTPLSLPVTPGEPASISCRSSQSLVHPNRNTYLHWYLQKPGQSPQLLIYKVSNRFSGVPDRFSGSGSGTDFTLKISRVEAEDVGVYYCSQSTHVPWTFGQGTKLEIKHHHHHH", "OD450": "0.03 OD"}

Recorded values, source patent US20260232732A1.
